System: Candida albicans
ASSAY NAME: Antifungal activity against Candida albicans 10231 assessed as inhibition in growth incubated for 48 hrs by broth microdilution method
Format: functional
Can you tell me MIC80 for the items I'm about to list?
Numbers only, in µg/mL.

Record CC(=O)O[C@@H]1C[C@]23C4=CC[C@@]5(C)[C@H](C(=O)O)[C@@](C)([C@H](C)C(C)C)CC[C@]5(C)[C@H]4CC[C@H]2[C@@](C)(COC3O)[C@H]1O[C@@H]1O[C@H](CO)[C@@H](O)[C@H](O)[C@H]1O (some centres undefined) [ENFUMAFUNGIN] , field MIC80: 4

Continuing:
The reported value for CC(=O)O[C@@H]1C[C@]23C4=CC[C@@]5(C)[C@@H]6C(=O)C[C@H](C(C)C)[C@@]6(C)CC[C@]5(C)[C@H]4CC[C@H]2[C@@](C)(COC3O)[C@H]1O[C@@H]1O[C@H](CO)[C@@H](O)[C@H](O)[C@H]1O (some centres undefined) in terms of MIC80 is 32
